tested on: Leishmania infantum; assay: WHO-TDR: Leishmaniasis; format: functional, organism-based, Mus musculus; details: Macrophage
READOUT: IC50

Consider the following illustrative entries.
| RECORD SMILES | RECORDED MEASUREMENT |
| --- | --- |
| COc1ccc(OC)c(S(=O)(=O)NCCNc2ccc(Nc3cc(C)ccn3)nn2)c1 | > 13.3 µg/mL |
| O=C(NCCNc1ccc(Nc2ccccn2)nn1)c1ccc(F)cc1 | > 10.6 µg/mL |
| CC1(C)COc2ccc(NS(=O)(=O)c3cccc4ccccc34)cc2NC1=O | > 11.9 µg/mL |
| O=S(=O)(CCCOc1ccc2c(c1)OCO2)NC1CCN(Cc2ccccc2)CC1 | > 13 µg/mL |
| O=C(CSc1nnc(NC(=O)C2CCCCC2)s1)Nc1ccccc1C(F)(F)F | > 13.3 µg/mL |

Now look at this entry.
Prompt line: Which IC50 value belongs to "NC(=O)c1ccc(NC(=O)CCCn2nc(-c3ccc(Cl)cc3)ccc2=O)cc1" ?
Response line: > 12.3 µg/mL

====

tested on: Schistosoma mansoni; assay: WHO-TDR: Schistosomiasis; format: functional; design: concentration or dose not given beside the values
# reported % Inhibition; entries follow
Mention the unit after the number when you answer.

| MOLECULE | % Inhibition |
| --- | --- |
| CCOC(=O)CNC(=O)CSc1nnc(NC(=O)c2ccccc2Cl)s1 | 0% |
| CN(C)C(CNS(=O)(=O)c1ccc2c(c1)CCCC2)c1ccc(F)cc1 (stereo not given) | 0% |
| CCOC(=O)N1CCc2c(sc(NC(=O)c3ccco3)c2-c2nc3ccccc3s2)C1 | 58.7% |
| COc1ccc(C)cc1S(=O)(=O)N1CCN(c2ccc(-c3cccs3)nn2)CC1 | 0% |
| Cc1nnc(NC(=O)COc2cccc3ccc(N4CCCC(C)C4)nc23)s1 (stereo not given) | 0% |
| CN1CCN(C(CNC(=O)COc2ccccc2F)c2ccc3c(c2)CCN3C)CC1 (stereo not given) | 0% |
| CS(=O)(=O)c1ccc2nc(Nc3nc4c(F)cccc4s3)sc2c1 | 0% |
| Cc1cccc2sc(N(CCCN(C)C)C(=O)c3ccccc3Br)nc12 | 33.3% |

Prompt line: Which % Inhibition value belongs to "O=C(CSC1=Nc2cccnc2Nc2ccccc21)Nc1ccc(OC(F)(F)F)cc1" ?
Response line: 0%

Prompt line: // same read-out, input: "CCOC(=O)c1c(NC(=O)CSc2nc3c([nH]c4ccccc43)c(=O)n2-c2ccccc2)sc2c1CCC2"
Response line: 0%

Prompt line: // same read-out, input: CCOC(=O)c1c(NC(=O)C(C)Sc2nnc(NC(C)=O)s2)sc2c1CCCC2 (stereo not given)
Response line: 100%

Prompt line: // same read-out, input: "CC(C)S(=O)(=O)Nc1ccc2c(c1)NC(=O)C(C)(C)CO2"
Response line: 0%

Prompt line: // same read-out, input: "Cc1cc(NC(=O)c2cccs2)n(-c2nc3c(c(=O)[nH]2)CCC3)n1"
Response line: 0%

Prompt line: // same read-out, input: "N#Cc1cnc2c(F)cccc2c1Nc1ccc(Br)cc1"
Response line: 0%

Prompt line: // same read-out, input: "O=C(Cc1ccccc1)Nc1nnc(SCC(=O)NC2CCCC2)s1"
Response line: 0%

====

test: WHO-TDR: Cytotoxicity; type: toxicity, cell-based; conditions: human, MRC5 cells
READOUT: IC50

| COMPOUND | READOUT | RECORDED MEASUREMENT |
| --- | --- | --- |
| Cc1cc(=O)[nH]c(-n2nc(C)c(CCC(=O)Nc3cc(C)on3)c2C)n1 | IC50 | > 10.7 µg/mL |
| COc1cccc2sc(Nc3nc4ccc(NC(C)=O)cc4s3)nc12 | IC50 | > 11.1 µg/mL |
| CN1CCN(C(CNC(=O)c2c(F)cccc2F)c2ccsc2)CC1 (stereo unspecified) | IC50 | > 11 µg/mL |
| CN(C)C(CNS(=O)(=O)c1ccc2c(c1)CCCC2)c1ccc(F)cc1 (stereo unspecified) | IC50 | > 11.3 µg/mL |
| O=C(CCSc1ccccc1)NCCOc1ccc2nnc(-c3ccc(F)cc3)n2n1 | IC50 | > 13.1 µg/mL |

Now look at this entry.
Prompt line: Which IC50 value belongs to "O=S(=O)(CCCOc1ccc(F)cc1)NCc1c(F)cccc1F" ?
Response line: > 10.8 µg/mL
